This document collects IC50 values reported for Neuraminidase (Influenza A virus (A/Puerto Rico/8/1934(H1N1))).
Numbers only; they are read as µM.

## Task Consider the compound shown here: O=C(CCc1ccccc1)C[C@@H]1C[C@@H](c2ccccc2)c2c(cc(/C=C/c3ccccc3)oc2=O)O1 What is its recorded IC50?
## Result 1.05

## Task Also, CC(C)=CCC/C(C)=C/CC/C(C)=C/CO please.
## Result 81.4

## Task For O=C(/C=C/C=C/c1ccccc1)CCc1ccccc1 then?
## Result 6.1

## Task Next compound: O[C@@H](CC/C=C/c1ccccc1)CCc1ccccc1
## Result 4.13

## Task Also need O[C@@H](CCc1ccccc1)C[C@H](O)/C=C/c1ccccc1 , thanks.
## Result 29.8

## Task Let us now turn to O=C(/C=C(O)\C=C\c1ccccc1)CCc1ccccc1
## Result 4.67

// data source = ChEMBL document CHEMBL1154750
